- SYSTEM TESTED: human secretin receptor (hSCTR) (human, UniProt P47872 23-440)
- Sequence (P47872 23-440): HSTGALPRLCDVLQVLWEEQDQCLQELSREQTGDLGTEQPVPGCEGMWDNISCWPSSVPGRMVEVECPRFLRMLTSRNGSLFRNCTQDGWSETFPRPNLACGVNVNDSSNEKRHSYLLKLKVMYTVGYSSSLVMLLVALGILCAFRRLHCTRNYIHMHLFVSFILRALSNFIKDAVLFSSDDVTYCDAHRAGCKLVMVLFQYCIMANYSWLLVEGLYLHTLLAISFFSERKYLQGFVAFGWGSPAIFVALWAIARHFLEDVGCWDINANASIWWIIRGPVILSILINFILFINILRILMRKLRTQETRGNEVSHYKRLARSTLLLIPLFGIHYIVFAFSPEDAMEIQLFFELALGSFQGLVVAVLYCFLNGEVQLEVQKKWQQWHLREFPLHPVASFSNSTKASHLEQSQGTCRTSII
- RUN DESCRIPTION: cell-based or functional assay
Numbered stars: 1 amine (or outer) side, 2 acyl side, 3 side chain; on linkers, the order of the positions; unused ones are H or OH. Square brackets hold non-standard residues; d marks the D form. Side chains are listed from the residue outwards. Ends that are not written are not given here. * marks the point of attachment. C20 diacid = O=C(O)CCCCCCCCCCCCCCCCCCC(=O)*; γGlu = O=C(O)[C@H](CCC(=O)[*:2])N[*:1]; AEEA = NCCOCCOCC(=O)O; Aib = CC(C)(N)C(=O)O
Each record here notes measured pEC50 hSCTR.

H[Aib]EGTFTSDVSRLK([AEEA-AEEA-γGlu-C20 diacid])ELAAQQRFLEHLV-NH2 [SEQ ID NO: 3] : 7.1 -log M
H[Aib]EGTFTSDVSTLK([AEEA-AEEA-γGlu-C20 diacid])ETAATQRFLEHLV-NH2 (not fully specified) [SEQ ID NO: 93] : 6.5 -log M
H[Aib]EGTFTSDVSTLK([AEEA-AEEA-γGlu-C20 diacid])EFAAQQRFLEHLV-NH2 (also: K14 lipid also given as C18DA[γE][OEG][OEG]-) [SEQ ID NO: 100] : 6.1 -log M

Then this binder:
Return value of pEC50 hSCTR for input H[Aib]EGTFTSDVSTLK([AEEA-AEEA-γGlu-C20 diacid])EEAAQQRFLEHLV-NH2 [SEQ ID NO: 39] , no commentary.
6.5 -log M
